Values compiled from ChEMBL document CHEMBL3853265.

# Measurement notes: Octanol-water partition co-efficient, log D of the compound by shake flask method
# Format: physicochemical
logD reference
Property name: logD

Structure as smiles: O=S(=O)(Nc1cnc2ccccc2c1)c1ccccc1C(F)(F)F
Property name: logD
Result: 2.5

Structure as smiles: N#Cc1ccc(NS(=O)(=O)c2ccccc2C(F)(F)F)c(Cl)c1
Property name: logD
Result: 1.1

Structure as smiles: N#Cc1ccccc1NS(=O)(=O)c1ccccc1C(F)(F)F
Property name: logD
Result: 0.8

Structure as smiles: N#Cc1c(Cl)cccc1NS(=O)(=O)c1ccccc1C(F)(F)F
Property name: logD
Result: 1

Structure as smiles: O=S(=O)(Nc1ccc(C(F)(F)F)nc1)c1ccccc1C(F)(F)F
Property name: logD
Result: 1.4

Structure as smiles: N#Cc1cc(NS(=O)(=O)c2ccccc2C(F)(F)F)ccc1C(F)(F)F
Property name: logD
Result: 2

Structure as smiles: COc1cncc(NS(=O)(=O)c2ccccc2C(F)(F)F)c1
Property name: logD
Result: 1.3

Structure as smiles: N#Cc1cc(NS(=O)(=O)c2ccccc2C(F)(F)F)ccc1Cl
Property name: logD
Result: 2.3

Structure as smiles: N#Cc1cccc(NS(=O)(=O)c2ccccc2C(F)(F)F)c1
Property name: logD
Result: 1.9

Structure as smiles: O=S(=O)(Nc1cncc(Br)c1)c1ccccc1C(F)(F)F
Property name: logD
Result: 1.6

Structure as smiles: O=S(=O)(Nc1ccccc1F)c1ccccc1C(F)(F)F
Property name: logD
Result: 2.4

Structure as smiles: N#Cc1ccc(NS(=O)(=O)c2ccccc2C(F)(F)F)cc1Cl
Property name: logD
Result: 1.8

Structure as smiles: O=S(=O)(Nc1cccc(OC(F)(F)F)c1)c1ccccc1C(F)(F)F
Property name: logD
Result: 3.9

Structure as smiles: N#Cc1ccc(NS(=O)(=O)c2ccccc2C(F)(F)F)cc1C(F)(F)F
Property name: logD
Result: 1.8

Structure as smiles: O=S(=O)(Nc1cncc(C(F)(F)F)c1)c1ccccc1C(F)(F)F
Property name: logD
Result: 1.5

----------
# Measurement notes: Oral bioavailability in rat at 3 mg/kg
# Type: ADME, organism-based
# Condition info: in vivo
This section presents compounds with their documented bioavailability values.

Structure as smiles: O=S(=O)(Nc1ccc(C(F)(F)F)nc1)c1ccccc1C(F)(F)F
bioavailability: 98%
--
Structure as smiles: O=S(=O)(Nc1cncc(C(F)(F)F)c1)c1ccccc1C(F)(F)F
bioavailability: 150%

----------
# System tested: Sodium channel protein type 5 subunit alpha (Homo sapiens, UniProt Q14524)
# Sequence (Q14524 whole entry): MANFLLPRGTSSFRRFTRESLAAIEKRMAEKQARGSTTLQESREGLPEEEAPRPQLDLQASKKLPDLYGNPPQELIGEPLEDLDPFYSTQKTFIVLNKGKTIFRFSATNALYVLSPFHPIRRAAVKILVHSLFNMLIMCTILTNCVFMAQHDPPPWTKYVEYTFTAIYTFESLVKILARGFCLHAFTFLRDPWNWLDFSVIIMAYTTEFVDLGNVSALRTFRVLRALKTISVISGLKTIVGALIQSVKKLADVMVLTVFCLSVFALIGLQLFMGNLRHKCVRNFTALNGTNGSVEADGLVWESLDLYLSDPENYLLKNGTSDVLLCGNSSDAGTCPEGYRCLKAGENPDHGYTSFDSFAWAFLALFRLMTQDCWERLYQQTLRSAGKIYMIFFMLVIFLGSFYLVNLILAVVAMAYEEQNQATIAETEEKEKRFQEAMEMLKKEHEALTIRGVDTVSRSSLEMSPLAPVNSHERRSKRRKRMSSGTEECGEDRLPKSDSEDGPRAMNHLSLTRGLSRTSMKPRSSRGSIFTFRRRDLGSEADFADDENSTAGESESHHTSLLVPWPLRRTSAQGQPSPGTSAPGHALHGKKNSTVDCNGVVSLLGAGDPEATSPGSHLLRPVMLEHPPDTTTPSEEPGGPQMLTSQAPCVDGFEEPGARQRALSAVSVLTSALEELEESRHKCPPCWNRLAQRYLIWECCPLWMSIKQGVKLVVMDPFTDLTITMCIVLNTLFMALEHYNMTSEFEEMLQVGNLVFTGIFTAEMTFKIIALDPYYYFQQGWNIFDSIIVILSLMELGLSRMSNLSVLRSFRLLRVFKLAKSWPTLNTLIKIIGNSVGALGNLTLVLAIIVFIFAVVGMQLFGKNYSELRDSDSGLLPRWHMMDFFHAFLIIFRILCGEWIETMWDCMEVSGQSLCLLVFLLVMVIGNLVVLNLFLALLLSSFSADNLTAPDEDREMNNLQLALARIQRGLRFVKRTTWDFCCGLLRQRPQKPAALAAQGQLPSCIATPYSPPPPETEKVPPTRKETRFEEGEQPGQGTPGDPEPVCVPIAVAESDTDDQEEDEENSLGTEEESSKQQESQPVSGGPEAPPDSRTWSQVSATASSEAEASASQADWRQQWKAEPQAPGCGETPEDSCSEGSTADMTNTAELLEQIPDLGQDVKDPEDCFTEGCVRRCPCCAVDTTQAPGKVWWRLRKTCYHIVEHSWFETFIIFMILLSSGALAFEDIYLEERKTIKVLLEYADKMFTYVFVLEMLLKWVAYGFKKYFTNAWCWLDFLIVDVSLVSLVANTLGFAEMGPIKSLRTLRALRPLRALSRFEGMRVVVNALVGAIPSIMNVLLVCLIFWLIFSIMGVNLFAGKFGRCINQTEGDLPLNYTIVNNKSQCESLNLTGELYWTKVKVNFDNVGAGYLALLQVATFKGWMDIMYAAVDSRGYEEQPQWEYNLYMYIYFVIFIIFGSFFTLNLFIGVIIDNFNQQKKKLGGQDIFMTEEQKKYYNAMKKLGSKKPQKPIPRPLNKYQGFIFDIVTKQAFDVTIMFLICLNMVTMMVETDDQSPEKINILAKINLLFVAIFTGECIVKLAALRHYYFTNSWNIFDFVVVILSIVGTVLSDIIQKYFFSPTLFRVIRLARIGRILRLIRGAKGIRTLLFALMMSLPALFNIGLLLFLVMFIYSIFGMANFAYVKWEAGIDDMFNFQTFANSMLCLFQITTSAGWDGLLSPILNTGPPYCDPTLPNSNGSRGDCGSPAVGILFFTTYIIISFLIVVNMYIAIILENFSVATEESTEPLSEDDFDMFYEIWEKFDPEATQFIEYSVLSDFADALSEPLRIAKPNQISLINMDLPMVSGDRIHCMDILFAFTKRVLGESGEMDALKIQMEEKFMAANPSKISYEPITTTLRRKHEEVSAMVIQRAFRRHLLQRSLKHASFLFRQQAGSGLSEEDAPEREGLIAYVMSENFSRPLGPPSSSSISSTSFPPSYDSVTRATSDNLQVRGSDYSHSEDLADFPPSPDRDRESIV
# Measurement notes: Inhibition of human NaV1.5 expressed in HEK293 cells by patch clamp method
pIC50: −log10 of the molar value.

Structure as smiles: O=S(=O)(Nc1ccc(C(F)(F)F)nc1)c1ccccc1C(F)(F)F
pIC50: < 4.00
//
Structure as smiles: O=S(=O)(Nc1cncc(C(F)(F)F)c1)c1ccccc1C(F)(F)F
pIC50: < 4.52

----------
# Measurement notes: Intrinsic clearance in human liver microsomes
# Assay type: ADME
# Condition info: read-out: CLH

Structure as smiles: N#Cc1cc(NS(=O)(=O)c2ccccc2C(F)(F)F)ccc1Cl
microsomal CLint: < 12 µL/min/mg
--
Structure as smiles: O=S(=O)(Nc1cccc(OC(F)(F)F)c1)c1ccccc1C(F)(F)F
microsomal CLint: 55 µL/min/mg
--
Structure as smiles: N#Cc1ccc(NS(=O)(=O)c2ccccc2C(F)(F)F)c(Cl)c1
microsomal CLint: 14 µL/min/mg
--
Structure as smiles: N#Cc1c(Cl)cccc1NS(=O)(=O)c1ccccc1C(F)(F)F
microsomal CLint: 30 µL/min/mg
--
Structure as smiles: N#Cc1cccc(NS(=O)(=O)c2ccccc2C(F)(F)F)c1
microsomal CLint: < 8 µL/min/mg
--
Structure as smiles: N#Cc1ccccc1NS(=O)(=O)c1ccccc1C(F)(F)F
microsomal CLint: 19 µL/min/mg
--
Structure as smiles: N#Cc1ccc(NS(=O)(=O)c2ccccc2C(F)(F)F)cc1C(F)(F)F
microsomal CLint: < 12 µL/min/mg
--
Structure as smiles: O=S(=O)(Nc1cncc(Br)c1)c1ccccc1C(F)(F)F
microsomal CLint: 14 µL/min/mg
--
Structure as smiles: COc1cncc(NS(=O)(=O)c2ccccc2C(F)(F)F)c1
microsomal CLint: < 8 µL/min/mg
--
Structure as smiles: O=S(=O)(Nc1cncc(C(F)(F)F)c1)c1ccccc1C(F)(F)F
microsomal CLint: 11 µL/min/mg
--
Structure as smiles: O=S(=O)(Nc1ccc(C(F)(F)F)nc1)c1ccccc1C(F)(F)F
microsomal CLint: < 8 µL/min/mg
--
Structure as smiles: N#Cc1ccc(NS(=O)(=O)c2ccccc2C(F)(F)F)cc1Cl
microsomal CLint: 11 µL/min/mg
--
Structure as smiles: N#Cc1cc(NS(=O)(=O)c2ccccc2C(F)(F)F)ccc1C(F)(F)F
microsomal CLint: 18 µL/min/mg
--
Structure as smiles: O=S(=O)(Nc1cnc2ccccc2c1)c1ccccc1C(F)(F)F
microsomal CLint: 153 µL/min/mg
